tested on: H1792 cells; assay: In vitro viability assay (Cell Titer 96 Aqueous One), H1792; type: cell-based, human; conditions: H1792 cells (FIG. 6, 7A, 7B)
parameter measured: cytotoxicity (activity)

- C#Cc1ccc2c(c1)C(c1ccccc1)=NCC(=S)N2C: poorly or inactive
- C#Cc1ccc2c(c1)C(c1ccccc1F)=NC(O)C(=O)N2 (stereo not drawn): poorly or inactive
- C#Cc1ccc2c(c1)C(c1ccccc1F)=NCC(=S)N2C: poorly or inactive
- C#Cc1cc(C#C)c2c(c1)C(c1ccccc1)=NCC(=O)N2C: poorly or inactive
- O=C1CN=C(c2ccccc2)c2cc(Br)cc(Br)c2N1: poorly or inactive
- C#Cc1ccc2c(c1)C(c1ccccc1)=NC(O)C(=O)N2C (stereo not drawn): poorly or inactive
